- SYSTEM: SARS-COV-2 RBD extracellular domain expressed with a C-terminal myc-myc-hexahistidine tag (SARS-CoV-2)
- ASSAY TEXT: SPR (Biacore), mAb captured by anti-human Fc, RBD-mmH in solution, 25 C
Can you tell me t½ for the items I'm about to list?
One number for each entry, in min.

mAb15151 (antibody, V domains shown) VH: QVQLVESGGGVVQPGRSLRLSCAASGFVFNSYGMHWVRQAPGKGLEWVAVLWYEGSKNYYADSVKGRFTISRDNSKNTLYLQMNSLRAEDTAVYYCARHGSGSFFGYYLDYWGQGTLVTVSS VL: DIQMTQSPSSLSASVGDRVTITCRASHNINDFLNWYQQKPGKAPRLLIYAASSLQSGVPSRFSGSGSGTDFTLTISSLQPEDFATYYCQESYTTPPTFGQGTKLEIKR : 14.8
mAb14230 (antibody, V domains shown) VH: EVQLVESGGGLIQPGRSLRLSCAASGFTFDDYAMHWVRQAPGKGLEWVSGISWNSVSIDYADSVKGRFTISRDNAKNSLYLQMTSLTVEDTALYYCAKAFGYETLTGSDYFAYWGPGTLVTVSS VL: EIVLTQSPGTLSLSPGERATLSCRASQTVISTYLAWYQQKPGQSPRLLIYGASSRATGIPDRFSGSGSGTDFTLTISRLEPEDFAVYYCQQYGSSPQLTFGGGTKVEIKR : 1.4
mAb13458 (antibody, V domains shown) VH: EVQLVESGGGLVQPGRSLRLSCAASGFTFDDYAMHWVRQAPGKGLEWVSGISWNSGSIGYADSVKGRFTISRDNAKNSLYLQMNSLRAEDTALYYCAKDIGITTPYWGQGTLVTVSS VL: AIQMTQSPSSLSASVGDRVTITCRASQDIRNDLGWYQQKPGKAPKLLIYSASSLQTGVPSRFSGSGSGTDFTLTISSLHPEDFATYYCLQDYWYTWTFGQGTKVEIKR : 8.3

Give t½ for each of the items listed below.
1. mAb14280 (antibody, V domains shown) VH: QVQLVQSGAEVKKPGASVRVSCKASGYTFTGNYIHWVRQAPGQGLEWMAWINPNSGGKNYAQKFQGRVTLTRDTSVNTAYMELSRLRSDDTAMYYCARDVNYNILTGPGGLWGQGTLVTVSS VL: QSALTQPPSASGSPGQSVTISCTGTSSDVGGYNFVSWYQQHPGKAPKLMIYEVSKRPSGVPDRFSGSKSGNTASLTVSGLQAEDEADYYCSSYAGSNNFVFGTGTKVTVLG
2. mAb15165 (antibody, V domains shown) VH: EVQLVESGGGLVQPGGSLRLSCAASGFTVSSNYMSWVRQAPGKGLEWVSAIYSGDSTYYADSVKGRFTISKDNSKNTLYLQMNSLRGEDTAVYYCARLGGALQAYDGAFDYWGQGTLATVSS VL: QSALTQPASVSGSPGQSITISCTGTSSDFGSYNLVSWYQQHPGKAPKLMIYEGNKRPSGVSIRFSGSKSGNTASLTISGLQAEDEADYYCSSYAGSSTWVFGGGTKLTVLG
3. mAb14247 (antibody, V domains shown) VH: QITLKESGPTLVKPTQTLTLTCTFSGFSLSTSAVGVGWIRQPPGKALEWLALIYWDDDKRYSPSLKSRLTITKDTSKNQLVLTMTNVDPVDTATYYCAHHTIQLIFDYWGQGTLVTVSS VL: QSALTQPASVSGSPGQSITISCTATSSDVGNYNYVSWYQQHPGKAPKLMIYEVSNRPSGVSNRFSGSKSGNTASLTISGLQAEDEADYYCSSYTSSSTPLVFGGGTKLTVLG
4. mAb14257 (antibody, V domains shown) VH: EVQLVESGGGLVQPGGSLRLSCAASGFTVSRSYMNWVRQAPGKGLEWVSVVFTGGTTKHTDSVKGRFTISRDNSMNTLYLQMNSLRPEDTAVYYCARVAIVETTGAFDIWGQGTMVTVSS VL: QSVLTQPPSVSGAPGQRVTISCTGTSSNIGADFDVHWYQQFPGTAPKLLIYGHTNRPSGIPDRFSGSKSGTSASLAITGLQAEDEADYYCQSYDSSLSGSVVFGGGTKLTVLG
5. mAb14281 (antibody, V domains shown) VH: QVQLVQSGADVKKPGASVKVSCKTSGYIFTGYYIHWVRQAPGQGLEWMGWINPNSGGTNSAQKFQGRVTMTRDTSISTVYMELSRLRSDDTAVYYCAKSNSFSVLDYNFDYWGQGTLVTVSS VL: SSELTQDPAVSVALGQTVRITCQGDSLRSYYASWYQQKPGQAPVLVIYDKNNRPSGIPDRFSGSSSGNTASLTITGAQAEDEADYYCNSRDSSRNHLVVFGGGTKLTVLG
6. mAb14258 (antibody, V domains shown) VH: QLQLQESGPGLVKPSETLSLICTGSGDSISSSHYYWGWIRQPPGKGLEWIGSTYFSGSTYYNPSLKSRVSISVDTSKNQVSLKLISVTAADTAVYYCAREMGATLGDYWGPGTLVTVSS VL: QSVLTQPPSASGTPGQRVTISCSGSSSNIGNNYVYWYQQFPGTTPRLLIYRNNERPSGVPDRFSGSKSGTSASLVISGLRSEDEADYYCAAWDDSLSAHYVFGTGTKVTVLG

0.5
54.6
7.1
1.2
2.1
7.2

Answer with the recorded t½ of mAb15170 (antibody, V domains shown) VH: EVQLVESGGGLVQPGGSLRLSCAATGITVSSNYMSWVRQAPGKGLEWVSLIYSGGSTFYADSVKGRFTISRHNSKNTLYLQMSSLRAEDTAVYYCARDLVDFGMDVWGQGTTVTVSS VL: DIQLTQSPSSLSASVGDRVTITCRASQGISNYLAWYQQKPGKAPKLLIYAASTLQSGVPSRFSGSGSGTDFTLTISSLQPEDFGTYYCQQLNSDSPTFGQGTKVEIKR only.
756
